Target: HIV-integrase (Human immunodeficiency virus type 1 group M subtype B)
Construct: 0.26 ng of recombinant integrase was incubated with the beads
Experiment: HIV-integrase inhibition activity (SPA bead strand-transfer assay)
Assay type: biochemical
Conditions: 50 μM compound; recombinant integrase
measured property: inhibition at 50 µM

compound: CCCCCCN(CCCCCC)C(=O)CON(Cc1ccc(F)cc1)C(=O)/C=C(\O)C(=O)O
measured value: > 99%
--
compound: O=C(O)/C(O)=C/C(=O)N(Cc1ccc(F)cc1)OCC(=O)N1CCOCC1
measured value: > 99%

We next turn to a different compound, shown below.
Query string: Would you mind telling me what inhibition at 50 µM value was observed for CC(NC(=O)CON(Cc1ccc(F)cc1)C(=O)/C=C(\O)C(=O)O)c1ccc(F)cc1 (stereo not drawn) ?
Result string: > 99%

====

Exercise: for every item that follows, state its recorded melting point.

Worked set:
molecule: CC1(C)OC(=O)/C(=C/C(=O)N(Cc2ccccc2)OCc2ccccc2)O1
measured value: 107 to 108 °C
//
molecule: CON(CCCc1ccc(Cl)c(Cl)c1)C(=O)/C=C(\O)C(=O)O
measured value: 106 °C (dec.)
//
molecule: CON(CCCc1ccc(Cl)c(Cl)c1)C(=O)/C=C1\OC(C)(C)OC1=O
measured value: 105 to 106 °C
//
molecule: CON(Cc1ccc(F)cc1C(F)(F)F)C(=O)/C=C1\OC(C)(C)OC1=O
measured value: 129 to 130 °C
//
molecule: CON(CCc1ccc(F)cc1)C(=O)/C=C(\O)C(=O)O [Compound 9]
measured value: 107 to 108 °C (dec.)

Query string: For CON(Cc1cccc(F)c1)C(=O)/C=C1\OC(C)(C)OC1=O , what is its reported melting point?
Result string: 110 to 111 °C
